# Tested on: gene editing with Cas9
# measurementDescription: Screen of 322 new SSAP proteins, gene editing activity with Cas9 (Table 5)
# Assay type: cell-based
# recordedConditions: normalized
Parameter Cas9 with SSAP activity (normalized): see the listing below.
# answer = number (no unit)

# molecule, Cas9 with SSAP activity (normalized)
data = [
    ("SSAP_299: SEQ ID NO: 468; Paenibacillus sp. JCM 10914 (protein, listed as Paenibacillus sp.) TMDYVTKIQDALDRELDAKHDALPSGFKKTRFSENCRAYVKDYKDLQKYDAEEVASVLFKGAVLGLDFLAKECHVITEGSALRFQTDYKGEMTLVKKYSVRPILDIYAKNVREGDDFREEISGGKPLIHFNPRAFNNSKITGSFAVALFTDGGMVYETMPAEEIESIREHYGKNPGSDTWEKSQGEMYKRTVLRRLCKTIEIDFDAEQSLAYEAGSSFEFDREQQPKKRSPFNPPEVEESEVLSNDGITETQ", "−0.809"),
    ("SSAP_91: SEQ ID NO: 260; Proteus mirabilis (protein, listed as Proteus mirabilis) SNPPLAQADLQKTQGTEVKTKTKDQQLIHFINQPSMKTQLAAALPRHMTPDRMIRIVTTEIRKTPALANCDMQSFIGAVVQCSQLGLEPGNALGHAYLLPFGNGKAKSGQSNVQLIIGYRGMIDLARRSNQIISISARTVRQGDSFHFEYGLNENLTHVPGENEDSPITHVYAVARLKDGGVQFEVMTHNQIEKVRASSKAGQNGPWVSHWEEMAKKTVIRRLFKYLPVSIEMQKAVILDEKAEANVDQENASVFEGEFEEVGSNGN", 0.826),
    ("SSAP_57: SEQ ID NO: 226; Pirellula sp. SH-Sr6A (protein, listed as Pirellula sp.) SEATKEAKPETAIAKKPNGIKDWLKSDALKTQIASVAPKHMAPERVMRIALNAVSRTPKLADCTPESFMRCLLDLSSWGLVPDGRHAHLIPYGTECTLVLDYKGLVTLAYRSGWVKKIHADVVFEGDIFVYSLGTVCQHIPWEFRDDANKPEHKGHFRAAYCVVTMADGIEKHEVMTASEIDAIKAKSRSGNSGPWKDHYTEMAKKTVYRRASKWLPLSPEQADAMERDDDRIIDAVSVAVTQRLSKAAMPLIGANETGDTE", "−0.549"),
    ("SSAP_211: SEQ ID NO: 380; unclassified Streptomyces (protein, listed as Streptomyces sp.) SQIGNAIATRDEGPAAQIEVYRDEYAALVPSHVNADQWVRLAVGAIRGNDDLLKAAGNDIGLFLREMKTAARLGLEPGTEQFYLTPRKSKAHGGRPVIKGIVGYQGIVELIYRAGAASTVIVEAVRQNDVFRYVPGRDDRPVHEIDWFGQDRGPLVGVYAYAVMKDGAVSKVVVLNKARVMELKAKSDSKNSPYSPWNTNEEAMWLKSGVRQLAKWVPTSAEFRRDQLLAHTDTADGVIASVSAPPLPPQSAALEDLDPDDEGPIDGELLDD", 4.679),
    ("SSAP_198: SEQ ID NO: 367; Streptomyces sp. ms191 (protein, listed as Streptomyces sp.) VEHYKADLAQVMPSHVKPDTFIRLAVGVLRRDRNLAQAAQNNPAALMGALMDAAQLGLTPGTEQFYLVPRKKAGRLEVQGIRGYQGEIELIYRAGAVSSVIVEVVRQADTFRYSPGRDERPEHEIDWDAEDRGPLRLVYAYAVMKDGATSKVVVLNRAQVMKAKAMSQGSDSAYSPWQKHEEAMWMKTAAHRLTKWVPTSAEYMREQLRAAAEVAAEHRPTPVAAAPGMPSVPGEDEAIEAEFVDEDEVA", "−0.571"),
    ("SSAP_124: SEQ ID NO: 293; Clostridium sp. AM58-1XD (protein, listed as Clostridium sp.) SVDVKNELEKRAAGTVNPAVKLTKNMTIVDMVRALEPEIKRALPTILTPERFMRMALSAINNTPELADCTPMSFIAALMNAAQLGMEPNTPLGQAYLIPYKNKGTLECQFQIGYKGLIDLAYRTGLIQVIQAQTVREFDSFEYQYGLDSRLTHRPGDGERGEITYIYGLFKLTNGGYGFEVSNKADMDAFAEKYSKSFGSRFSPWKENYEDMAKKTVIKRALKYAPVSSDFQKALSMDETIKSELSIDMSEIRNECQVEASGQEGAA", "−1.064"),
]

May I ask what Cas9 with SSAP activity (normalized) has been recorded for SSAP_133: SEQ ID NO: 302; Lacrimispora celerecrescens (protein, listed as Lacrimispora celerecrescens) SDVKQELEKRAAGGGSQSQSVKLTKNMTIVDMVKALEPEIKRALPSILTPERFTRMALSAINNTPKLGECTPMSFIAALMNAAQLGLEPNTPLGQAYLIPYKNKGVLECQFQLGYRGLIDLAYRNDRMQSIEAQVVYENDEFSYELGLHPSLTHRPSFDEPGEIRAFYAIFRLDNGGFRFEVMSKSYVDAYATKYSKAFTSDFSPWKNNYEGMAKKTVIKQLLKYAPIKSDFQKAITLDETVKTQLSIDMSEIRNECLPDTSENSEVA ?
−1.095

Note, next up: SSAP_23: SEQ ID NO: 192 (protein) TNNQLATQIKRDITTDPSLLTGADIKKYFDPQNLLTEKQVGQALALCKGRNLNPFANEVYIVAYQNNSGTEFSLIVSKEAFMKRAERCEGYDGFEAGITVMRNGEMIEIEGSLKLPEDILIGGWAVVYRKDRSHRYKVTVDFNEYVKTDRNGNPRSTWKSMPATMIRKTALVQTLREAFPDELGNMYTDIDGGDTFDAIKDVTPQESREDVVARKMAQIDQFNKEQEANHADPEPTQNEDPIQGELLDGELEY
0.359
